Hey, just so you know, these numbers are from patent US6566355B1.

- system-tested: β-lactamase (Citrobacter freundii)
- Construct: Various β-lactamases can be isolated from penicillin- or cephalosporin-resistant bacterial strains such as; endogenous in cells; host or cells: Citrobacter freundii 1203 (enzyme purified from the crude cell extract, after ampicillin induction when necessary)
- protocol-description: biochemical
- measurement-setup: IC 50 nM, isolated β-lactamase of Citrobacter freundii; substrate nitrocefin 0.1 mM; 15 minutes pre-incubation with inhibitor; 37° C., pH 7.0
observation-type: IC50 (nM)
Return type: number; implicit unit nM.

Some solved entries appear below for comparison.
Cn1nnnc1CNC(=O)N1CC[C@@H]2[C@H]1C(=O)N2S(=O)(=O)[O-].[Na+] [17(z), sodium salt] :: 98
O=C(COn1nnc2ccccc21)N1CC[C@@H]2[C@H]1C(=O)N2S(=O)(=O)[O-].[Na+] [5(k), sodium salt] :: 73
O=C(NCc1ccc(O)cc1)N1CC[C@@H]2[C@H]1C(=O)N2S(=O)(=O)[O-].[Na+] [17(ab), sodium salt] :: 194

Now consider the entry below.
Dear colleague, please send me the reported IC50 for Cn1nnnc1SCC(=O)N1CC[C@@H]2[C@H]1C(=O)N2S(=O)(=O)[O-].[Na+] [5(j), sodium salt] when you can.
23

###

- system-tested: β-lactamase (Citrobacter freundii)
- Construct: Various β-lactamases can be isolated from penicillin- or cephalosporin-resistant bacterial strains such as; endogenous in cells; host or cells: Citrobacter freundii 1203 (enzyme purified from the crude cell extract, after ampicillin induction when necessary)
- protocol-description: biochemical
- measurement-setup: isolated β-lactamase of Citrobacter freundii; substrate nitrocefin 0.1 mM; 15 minutes pre-incubation with inhibitor; 37° C., pH 7.0; read-out: IC 50 nM
Where a name gives a salt, the structure may show the parent alone.
observation-type: IC50 (nM)
# number only, unit nM dropped from output

Record excerpt, results attached:
CC(C)(C)OC(=O)N1CC[C@@H]2[C@H]1C(=O)N2S(=O)(=O)O [1(b), sodium salt] :: 225
O=C(CSc1nc[nH]n1)N1CC[C@@H]2[C@H]1C(=O)N2S(=O)(=O)O [12(b)] :: 115
N[C@@H](C(=O)N1CC[C@@H]2[C@H]1C(=O)N2S(=O)(=O)O)c1ccc(O)c(O)c1.[Na] [Example 21, sodium salt] :: 695
COC1=C(C(=O)O)N2C(=O)C3C2C(C1)CN3C(=O)OC(C)(C)C (stereo not drawn) [Example 7] :: 505
CCN(CC)CC.O=C(/C=C/c1c[nH]c2ccccc12)N1CC[C@@H]2[C@H]1C(=O)N2S(=O)(=O)O [6(f)] :: 11

Now look at this entry.
For the compound O=C(c1cc2ccccc2[nH]1)N1CC[C@@H]2[C@H]1C(=O)N2S(=O)(=O)O (racemic) [6(j)] , report IC50.
280

###

- system-tested: β-lactamase (Citrobacter freundii, UniProt P05193)
- Construct: Various β-lactamases can be isolated from penicillin- or cephalosporin-resistant bacterial strains such as; endogenous in cells; host or cells: Citrobacter freundii 1203 (enzyme purified from the crude cell extract, after ampicillin induction when necessary)
- Sequence (P05193 21-381): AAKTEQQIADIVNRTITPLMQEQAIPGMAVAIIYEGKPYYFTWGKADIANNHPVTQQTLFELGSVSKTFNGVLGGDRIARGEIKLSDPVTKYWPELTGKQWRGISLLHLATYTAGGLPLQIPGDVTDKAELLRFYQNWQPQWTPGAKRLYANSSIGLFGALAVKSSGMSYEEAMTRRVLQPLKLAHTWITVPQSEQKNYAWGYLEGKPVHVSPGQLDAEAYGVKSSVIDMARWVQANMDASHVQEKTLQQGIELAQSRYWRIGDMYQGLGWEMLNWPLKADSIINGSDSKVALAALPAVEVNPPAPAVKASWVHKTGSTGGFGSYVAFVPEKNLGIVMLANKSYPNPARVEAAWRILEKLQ
- protocol-description: biochemical
- measurement-setup: read-out: IC 50 nM; isolated β-lactamase of Citrobacter freundii; substrate nitrocefin 0.1 mM; 15 minutes pre-incubation with inhibitor; 37° C., pH 7.0
Where a name gives a salt, the structure may show the parent alone.
observation-type: IC50 (nM)
Respond numerically; units are nM and should not be typed.

# return recorded IC50 for entry O=C1[C@H](NC(=O)N2CC[C@@H]3[C@H]2C(=O)N3S(=O)(=O)O)CCN1O [17(r), sodium salt]
490

###

As shown below, each of these compounds has a reported pIC50 value.
- system-tested: β-lactamase (Citrobacter freundii, UniProt P05193)
- Construct: Various β-lactamases can be isolated from penicillin- or cephalosporin-resistant bacterial strains such as; endogenous in cells; host or cells: Citrobacter freundii 1203 (enzyme purified from the crude cell extract, after ampicillin induction when necessary)
- protocol-description: biochemical
Where a name gives a salt, the structure may show the parent alone.
Kindly note that pIC50 refers to -log10 of the concentration in mol/L and answer with the value alone.

Consider the worked cases shown below.
N[C@H](Cc1ccccc1)C(=O)N1CC[C@@H]2[C@H]1C(=O)N2S(=O)(=O)O [4(f)] :: 6.55
O=C(O)C(C(=O)N1CC[C@@H]2[C@H]1C(=O)N2S(=O)(=O)O)c1ccsc1 (mixture of isomers) [6(e)] :: 6.33
N[C@@H](Cc1ccc(O)cc1)C(=O)N1CC[C@@H]2[C@H]1C(=O)N2S(=O)(=O)O [Example 6(b)] :: 6.51

Specify reported pIC50 for the compound shown: O=C(NC1CCC1)N1CC[C@@H]2[C@H]1C(=O)N2S(=O)(=O)O [17(h), sodium salt]
6.84

Give the reported value of pIC50 for this record: NC(C(=O)N1CC[C@@H]2[C@H]1C(=O)N2S(=O)(=O)O)c1cccs1 (single isomer, unassigned) [5(e)]
7.07

Provide one value: measured pIC50 of O=C(OCc1ccccc1)N1CC[C@@H]2[C@H]1C(=O)N2S(=O)(=O)O [Example 1(a), sodium salt]
7.00

For the compound O=C(NCc1cccs1)N1CC[C@@H]2[C@H]1C(=O)N2S(=O)(=O)O [17(p), sodium salt] , report pIC50.
6.42

Note pIC50 for the compound shown: CC(=O)NC(C(=O)N1CC[C@@H]2[C@H]1C(=O)N2S(=O)(=O)O)c1ccccc1 (single isomer, unassigned) [5(g), sodium salt]
6.82

Tell me its pIC50 given N[C@H](C(=O)N1CC[C@@H]2[C@H]1C(=O)N2S(=O)(=O)O)c1ccccc1 [4(d)] as the entry.
6.56

Look up pIC50 of N[C@@H](C(=O)N1CC[C@@H]2[C@H]1C(=O)N2S(=O)(=O)O)c1ccccc1 [4(b)] and report it.
6.60

Fill in reported pIC50 for this entry: O=C(/C=C/c1ccc(O)c(O)c1)N1CC[C@@H]2[C@H]1C(=O)N2S(=O)(=O)O [6(u), sodium salt]
7.40

Consider the compound O=C(/C=C/c1ccco1)N1CC[C@@H]2[C@H]1C(=O)N2S(=O)(=O)O [Example 5(a), sodium salt] . State its measured pIC50.
7.07

###

Let's look at some compounds and their measured MIC.
- System: Citrobacter freundii
- protocol-description: MIC in vitro of a 1:4 combination of ceftriaxone with a compound of formula I (test D)
- Assay type: cell-based
- measurement-setup: 1:4 combination of ceftriaxone with the compound
- Procedure: D. Determination of the β-lactamase-inhibiting activity by combination of a compound of general formula I with ceftriaxone The minimum inhibitory concentration in vitro (MIC in μg/ml) of a 1:4 combination of ceftriaxone with a compound of formula I against Citrobacter freundii is measured and compiled in Table 2 hereinafter.
Your answer is read as µg/mL, so omit the unit and give the number.

O=C(CSc1nc[nH]n1)N1CC[C@@H]2[C@H]1C(=O)N2S(=O)(=O)O [12(b)] :: 2

Output reported MIC of the compound O=C(NCc1ccc(O)cc1)N1CC[C@@H]2[C@H]1C(=O)N2S(=O)(=O)[O-].[Na+] [17(ab)] on Citrobacter freundii.
1

Specify the recorded MIC for N[C@@H](Cc1ccc(O)cc1)C(=O)N1CC[C@@H]2[C@H]1C(=O)N2S(=O)(=O)O [Example 6(b)] , system: Citrobacter freundii.
4

Specify the recorded MIC for O=C(NCCc1ccccn1)N1CC[C@@H]2[C@H]1C(=O)N2S(=O)(=O)[O-].[Na+] [17(b)] , system: Citrobacter freundii.
2

Lab note: Citrobacter freundii assay, enter MIC for N[C@@H](C(=O)N1CC[C@@H]2[C@H]1C(=O)N2S(=O)(=O)O)c1cccc(O)c1 [6(p)] here
2

Would you please give the reported MIC of O=C(Nc1ccccc1)N1CC[C@@H]2[C@H]1C(=O)N2S(=O)(=O)[O-].[Na+] [Example 2] with Citrobacter freundii?
2

Report value only: MIC, Citrobacter freundii, O=C(COc1ccc(O)nn1)N1CC[C@@H]2[C@H]1C(=O)N2S(=O)(=O)[O-].[Na+] [5(p)]
1

State, for Citrobacter freundii, measured MIC of the compound listed here: CC(=O)Oc1ccc(/C=C/C(=O)N2CC[C@@H]3[C@H]2C(=O)N3S(=O)(=O)[O-])cc1OC(C)=O.[Na+] [Example 13]
4

Enter MIC (test system Citrobacter freundii) for O=C(OCc1cccs1)N1CC[C@@H]2[C@H]1C(=O)N2S(=O)(=O)[O-].[Na+] [17(n)]
16

###

- system-tested: β-lactamase (Citrobacter freundii, UniProt P05193)
- Construct: Various β-lactamases can be isolated from penicillin- or cephalosporin-resistant bacterial strains such as; endogenous in cells; host or cells: Citrobacter freundii 1203 (enzyme purified from the crude cell extract, after ampicillin induction when necessary)
- protocol-description: biochemical
Structures can show the parent of a compound that is named as a salt.
observation-type: pIC50
Remember the convention: pIC50 equals -log10 of concentration in molar.

Please report pIC50 for the following compound: O=C1SCCC1NC(=O)N1CC[C@@H]2[C@H]1C(=O)N2S(=O)(=O)O (mixture of isomers) [17(j), sodium salt]
7.10

Name the recorded pIC50 of the item O=C1SCC[C@@H]1NC(=O)N1CC[C@@H]2[C@H]1C(=O)N2S(=O)(=O)O [17(t), sodium salt] in your answer.
7.28

Kindly indicate its recorded pIC50. Item: O=C(CNc1cc[nH]c(=O)n1)N1CC[C@@H]2[C@H]1C(=O)N2S(=O)(=O)O [23(f), sodium salt]
7.52

Fill in reported pIC50 for this entry: Nc1cccc(NCC(=O)N2CC[C@@H]3[C@H]2C(=O)N3S(=O)(=O)O)c1
6.94
